target: Human HER3, endogenous, on human cancer cell lines (human, UniProt P21860 20-1342); assay: cell-based or functional assay
measured-endpoint: MCF7 pHER3 % inhibition (%)
One number for each entry, in %.

binder	units-of-measure	MCF7 pHER3 % inhibition
MOR09974 (antibody, human IgG1, kappa, V domains shown, tested as IgG) VH: QVQLVESGGGLVQPGGSLRLSCAASGFTFSSYAMSWVRQAPGKGLEWVSVINPSGNFTNYADSVKGRFTISRDNSKNTLYLQMNSLRAEDTAVYYCARWGDEGFDIWGQGTLVTVSS VL: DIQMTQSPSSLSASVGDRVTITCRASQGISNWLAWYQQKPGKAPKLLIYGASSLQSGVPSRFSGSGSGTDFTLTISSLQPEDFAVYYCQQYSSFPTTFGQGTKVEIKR	%	69
MOR09825 (antibody, human IgG1, kappa, V domains shown, tested as IgG) VH: QVQLVESGGGLVQPGGSLRLSCAASGFTFSSYAMSWVRQAPGKGLEWVSAINSQGKSTYYADSVKGRFTISRDNSKNTLYLQMNSLRAEDTAVYYCARWGDEGFDIWGQGTLVTVSS VL: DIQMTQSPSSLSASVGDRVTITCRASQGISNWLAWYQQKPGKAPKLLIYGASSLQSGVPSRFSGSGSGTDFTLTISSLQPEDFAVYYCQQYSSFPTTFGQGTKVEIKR	%	80
MOR12609 (antibody, human IgG1, kappa, V domains shown, tested as IgG) VH: QVQLVESGGGLVQPGGSLRLSCAASGFTFSSYAMSWVRQAPGKGLEWVSVINGLGYTTFYADSVKGRFTISRDNSKNTLYLQMNSLRAEDTAVYYCARWGDEGFDIWGQGTLVTVSS VL: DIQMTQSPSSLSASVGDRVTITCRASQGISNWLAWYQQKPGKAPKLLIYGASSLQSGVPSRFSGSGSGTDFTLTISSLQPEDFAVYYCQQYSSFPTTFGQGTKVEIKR	%	86

Below: the item to evaluate.
The binder identified as MOR09823 (antibody, human IgG1, kappa, V domains shown, tested as IgG) VH: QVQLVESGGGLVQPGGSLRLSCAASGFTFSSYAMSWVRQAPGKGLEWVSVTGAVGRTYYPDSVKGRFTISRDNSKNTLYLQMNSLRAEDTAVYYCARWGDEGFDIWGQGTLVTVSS VL: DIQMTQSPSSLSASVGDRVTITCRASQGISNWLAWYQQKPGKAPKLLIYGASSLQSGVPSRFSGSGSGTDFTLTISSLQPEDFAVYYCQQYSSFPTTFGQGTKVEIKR registered its MCF7 pHER3 % inhibition at 89
